assay: In vivo pharmacokinetic study in mice; details: mouse, plasma, 1 mg/kg, Iv
attributeMeasured: AUC(0-t)
Form entry: enter the amount, then its unit.

Previously resolved entries follow.
{"columns": ["compound", "AUC(0-t)"],
 "data": [
  ["Cn1c(C(=O)N2CC(C(F)F)C2)cc2c1CN(c1nccc(Nc3ccc(-c4cn[nH]c4)cc3)n1)CC2 [Compound L060]", "266 ng·h/mL"],
  ["Cn1c(C(=O)N2CC(F)(F)C2)cc2c1CN(c1ncc(F)c(Nc3ccc(-c4cn[nH]c4)cc3)n1)CC2 [Compound L027]", "412 ng·h/mL"],
  ["Cn1c(C(=O)N2CC(F)(F)C2)cc2c1CN(c1nccc(Nc3ccc(-c4cn[nH]c4)cc3)n1)CC2 [Compound L005]", "120 ng·h/mL"],
  ["Cn1c(C(=O)N2CC(F)(F)C2)cc2c1CN(c1nc(F)cc(Nc3ccc(-c4cn[nH]c4)cc3)n1)CC2 [Compound L030]", "726 ng·h/mL"],
  ["Cn1c(C(=O)N2CC(F)(F)C2)cc2c1CN(c1ncnc(Nc3ccc(-c4cn[nH]c4)cc3)n1)CC2 [Compound L036]", "349 ng·h/mL"]
]}

q: Give recorded AUC(0-t). Cn1c(C(=O)NCC(F)(F)F)cc2c1CN(c1nccc(Nc3ccc(-c4cn[nH]c4)cc3)n1)CC2 [Compound L017]
a: 872 ng·h/mL

q: Give recorded AUC(0-t). Cc1nc(Nc2ccc(-c3cn[nH]c3)cc2)nc(N2CCc3cc(C(=O)N4CC(F)(F)C4)n(C)c3C2)n1 [Compound L044]
a: 787 ng·h/mL

The measurements presented in this section are drawn from patent US20230257376A1.
